# Assay system: recombinant ATX (Homo sapiens)
# Construct: purchased SinoBiological Inc (main data); R&D (additional Km values)
# Procedure text: TOOS activity assay, LPC hydrolysis by recombinant ATX
# Type: biochemical
# Test settings: TOOS, 18:0 LPC; Cheng-Prusoff from IC50
Observation type: Ki (nM)
Give bare numbers, in nM.

Exam item: Give the reported Ki for this compound. CCCCCCCCCCCCCCCC(=O)OC[C@@H](O)CC(Br)P(=O)(O)O (stereo partly shown) [BrP-LPA]
Marked response: 600

* * *

# Assay system: recombinant ATX (Homo sapiens, UniProt Q13822)
# Construct: purchased SinoBiological Inc (main data); R&D (additional Km values)
# Procedure text: FS-3 ATX activity assay
# Format: biochemical
# Test settings: FS-3 substrate; Cheng-Prusoff from IC50
Observation type: Ki (nM)
Answers are plain numbers, in nM.

Exam item: Give the reported Ki for this compound. CCCCCCCCCCCCCCCC(=O)OC[C@@H](O)CC(Br)P(=O)(O)O (stereo partly shown)
Marked response: 300

* * *

# Assay system: plasma ATX/LysoPLD (Mus musculus, UniProt Q9R1E6)
# Construct: from tissue; host or cells: mouse plasma / whole blood
# Procedure text: Plasma ATX/lysoPLD activity ex vivo (TOOS assay, exogenous LPC)
# Assay type: biochemical
# Test settings: exogenous 14:0 LPC 50 μΜ, TOOS
# Description: ATX/LysoPLD activity was assessed based on the amount of choline released from LPC with the use of TOOS (N-ethyl-N-(2-hydoroxy-3-sulfopropyl)-3-methylaniline) reagent. […] The latter in the presence of horseradish peroxidase reacts with TOOS and 4-aminoantipyrene (4-AAP) to form a pink quinoneimine dye measured at 555 nm. […] The liberated choline was detected by adding 100 μl of a color mix containing 4-AAP and TOOS (0.3 mM), horseradish peroxidase (5.3 UnitmL^−1) and choline oxidase (2 UnitmL^−1). […]
pIC50: −log10 of the molar value.
Observation type: pIC50

Exam item: Give the reported pIC50 for this molecule. CCCCCCCCCCCCCCCC(=O)OC[C@@H](O)CC(Br)P(=O)(O)O (stereo partly shown) [BrP-LPA]
Marked response: < 5.00

* * *

# Procedure text: Mouse pharmacokinetics, plasma BrP-LPA by HPLC-MS/MS
# Format: in vivo
# Test settings: 10 mg/kg i.p., female mice
Observation type: Cmax (µM)
One number for each entry, in µM.

Exam item: Give the reported Cmax for this compound. CCCCCCCCCCCCCCCC(=O)OC[C@@H](O)CC(Br)P(=O)(O)O (stereo partly shown)
Marked response: 8

* * *

# Assay system: recombinant ATX (Homo sapiens, UniProt Q13822)
# Construct: purchased SinoBiological Inc (main data); R&D (additional Km values)
# Procedure text: Amplex Red activity assay, LPC hydrolysis by recombinant ATX (Echelon)
# Format: biochemical
# Test settings: substrate 18:0 LPC, [S] 50 μΜ, Echelon ATX 2 nM, mean±std
Observation type: IC50 (µM)
One number for each entry, in µM.

Exam item: Give the reported IC50 for this compound. CCCCCCCCCCCCCCCC(=O)OC[C@@H](O)CC(Br)P(=O)(O)O (stereo partly shown) [BrP-LPA]
Marked response: 1.1

* * *

# Assay system: recombinant ATX (Homo sapiens, UniProt Q13822)
# Construct: purchased SinoBiological Inc (main data); R&D (additional Km values)
# Procedure text: TOOS activity assay, LPC hydrolysis by recombinant ATX
# Assay type: biochemical
# Test settings: TOOS, substrate 16:0 LPC, [S] 50 μΜ, 2 nM ATX; mean±std of two experiments
Observation type: IC50

Exam item: Give the reported IC50 for this compound. CCCCCCCCCCCCCCCC(=O)OC[C@@H](O)CC(Br)P(=O)(O)O (stereo partly shown)
Marked response: 700 nM
